System: RPMI-6666 (Non-Cancerous)
Experiment: Bliss excess, mean over the matrix (fraction); higher = more synergy
OUTCOME MEASURE: Bliss excess
Please state the value as a number alone, without comment.

Cc1cc2ncnn2cc1Nc1ncc2c(n1)n(C1CCOCC1)c(=O)n2C [AZD7648] + CN(C)CCCOc1ccc(-c2ccc3ncc4c(c3c2)n(C2CCOCC2)c(=O)n4C)cn1 [AZD0156] (first compound max 10 µM, 7x7, partner max 1 µM)    -0.101

Per the reported RPMI-6666 (Non-Cancerous) data, C=CCn1c(=O)c2cnc(Nc3ccc(N4CCN(C)CC4)cc3)nc2n1-c1cccc(C(C)(C)O)n1 [AZD1775] + C1CN(CCC1(C(=O)N[C@@H](CCO)C2=CC=C(C=C2)Cl)N)C3=NC=NC4=C3C=CN4 [Capivasertib] (first compound max 3 µM, partner max 3 µM) has Bliss excess of -0.0148

====

System: COLO-829 (Melanoma)
Experiment: Bliss excess, mean over the matrix (fraction); higher = more synergy
If the reported Bliss excess equals or exceeds -0.02, assign true (1). If not, assign false (0).

Solved cases below.
CC(=O)c1c(C)c2cnc(Nc3ccc(N4CCNCC4)cn3)nc2n(C2CCCC2)c1=O [Palbociclib] + Cc1c2c(nn1C)CSCc1cc(n(C)n1)CSc1cc(c3ccccc3c1)OCCCc1c(C(=O)O)n(C)c3c-2c(Cl)ccc13 [AZD5991] (first compound max 10 µM, 7x7, partner max 1 µM)    false (0)
C[C@@H]1COCCN1c1cc(C2([S@](C)(=N)=O)CC2)nc(-c2ccnc3[nH]ccc23)n1 [AZD6738] + O=C(c1cc(Cc2n[nH]c(=O)c3ccccc23)ccc1F)N1CCN(C(=O)C2CC2)CC1 [Olaparib] (first compound max 10 µM, 7x7, partner max 10 µM)    true (1)
Cc1cc2ncnn2cc1Nc1ncc2c(n1)n(C1CCOCC1)c(=O)n2C [AZD7648] + C=CCn1c(=O)c2cnc(Nc3ccc(N4CCN(C)CC4)cc3)nc2n1-c1cccc(C(C)(C)O)n1 [AZD1775] (first compound max 10 µM, partner max 1 µM)    true (1)

Q: hey, is Bliss excess for this one >= -0.02? CC1(C)CCC(CN2CCN(c3ccc(C(=O)NS(=O)(=O)c4ccc(NCC5CCOCC5)c([N+](=O)[O-])c4)c(Oc4cnc5[nH]ccc5c4)c3)CC2)=C(c2ccc(Cl)cc2)C1 [Venetoclax] + Cc1cc2ncnn2cc1Nc1ncc2c(n1)n(C1CCOCC1)c(=O)n2C [AZD7648] (first compound max 1 µM, 7x7, partner max 10 µM)
A: false (0)

Q: hey, is Bliss excess for this one >= -0.02? CN(C)CCCOc1ccc(-c2ccc3ncc4c(c3c2)n(C2CCOCC2)c(=O)n4C)cn1 [AZD0156] + O=C(c1cc(Cc2n[nH]c(=O)c3ccccc23)ccc1F)N1CCN(C(=O)C2CC2)CC1 [Olaparib] (first compound max 3 µM, partner max 3 µM)
A: false (0)

Q: hey, is Bliss excess for this one >= -0.02? COc1cccc(OCCCN)c1-c1cc(Nc2cnc(C#N)cn2)n[nH]1 [Prexasertib] + CN(C)CCCOc1ccc(-c2ccc3ncc4c(c3c2)n(C2CCOCC2)c(=O)n4C)cn1 [AZD0156] (first compound max 1 µM, 7x7, partner max 1 µM)
A: true (1)

====

Test system: SH-4 (Melanoma)
Assay: combination Emax (second highest fraction inhibited in the dose matrix, 72 h); higher = more inhibition; extreme values may be limits of the assay
OUTCOME MEASURE: combination Emax
Please state the value as a number alone, without comment.

These recorded examples may help you get a feel for the data.
Cn1cnc2c(F)c(Nc3ccc(Br)cc3Cl)c(C(=O)NOCCO)cc21 [Selumetinib] + CCN(CCO)CCCOc1ccc2c(Nc3cc(CC(=O)Nc4cccc(F)c4)[nH]n3)ncnc2c1 [AZD2811] (first compound max 10 µM, 7x7, partner max 1 µM)    0.906
CCN(CCO)CCCOc1ccc2c(Nc3cc(CC(=O)Nc4cccc(F)c4)[nH]n3)ncnc2c1 [AZD2811] + C=CCn1c(=O)c2cnc(Nc3ccc(N4CCN(C)CC4)cc3)nc2n1-c1cccc(C(C)(C)O)n1 [AZD1775] (first compound max 1 µM, partner max 1 µM)    0.456
COc1cccc(OCCCN)c1-c1cc(Nc2cnc(C#N)cn2)n[nH]1 [Prexasertib] + CCc1c2c(nc3ccc(O)cc13)-c1cc3c(c(=O)n1C2)COC(=O)[C@]3(O)CC [SN-38] (first compound max 1 µM, 7x7, partner max 0.3 µM)    0.684

Now examine the next entry.
get_value(item= Cc1c2c(nn1C)CSCc1cc(n(C)n1)CSc1cc(c3ccccc3c1)OCCCc1c(C(=O)O)n(C)c3c-2c(Cl)ccc13 [AZD5991] + CCN(CCO)CCCOc1ccc2c(Nc3cc(CC(=O)Nc4cccc(F)c4)[nH]n3)ncnc2c1 [AZD2811] (first compound max 1 µM, 7x7, partner max 1 µM) , readout=combination Emax) returns 0.336

These entries and their values trace back to the supplement of paper PMC11061612.
